# test.name: Solubility of agrochemical active ingredient in oil comprising ionic liquid
# Type: physicochemical
# cond: neat N-ethyl-N′-ethylimidazolium propionate (ionic liquid), 21 °C, organic solvent or mixture, thermodynamic from solid, 21° C.; 100 IL (no oil); IL N-ethyl-N′-ethylimidazolium propionate; read-out: Solubility of fluxapyroxad with Solvesso ® 200 ND as oil
result.type: solubility (mg/mL)

compound=Cn1cc(C(=O)Nc2ccccc2-c2cc(F)c(F)c(F)c2)c(C(F)F)n1 result_type=solubility units_symbol=mg/mL result_number=45.7

###

# test.name: Solubility of agrochemical active ingredient in oil comprising ionic liquid
# Type: physicochemical
# cond: neat N-ethyl-N′-methylimidazolium acetate (ionic liquid), organic solvent or mixture, thermodynamic from solid; 21° C.; 100 IL (no oil); IL N-ethyl-N′-methylimidazolium acetate; read-out: Solubility of fluxapyroxad with Agnique AMD 12 ® (N,N-dimethyldodecanamide, lauryl N,N-dimethylamide) as oil
result.type: solubility

compound="Cn1cc(C(=O)Nc2ccccc2-c2cc(F)c(F)c(F)c2)c(C(F)F)n1 [fluxapyroxad]" result="1000 µg/mL"

###

# test.name: Solubility of agrochemical active ingredient in oil comprising ionic liquid
# Assay type: physicochemical
# cond: neat ionic liquid (no oil), organic solvent or mixture, thermodynamic from solid; 21° C.; 100 IL (no oil); IL N-ethyl-N′-methylimidazolium isononanoate; read-out: Solubility of fluxapyroxad with Agnique AMD 12 ® (N,N-dimethyldodecanamide, lauryl N,N-dimethylamide) as oil
result.type: solubility

compound=Cn1cc(C(=O)Nc2ccccc2-c2cc(F)c(F)c(F)c2)c(C(F)F)n1 result="9500 µg/mL"

###

# test.name: Solubility of agrochemical active ingredient in oil comprising ionic liquid
# Format: physicochemical
# cond: Cetiol B oil comprising ionic liquid, 21 °C, oil or lipid, thermodynamic from solid, 21° C.; Oil/IL 80/20 weight ratio; IL N-butyl-N′-methylimidazolium dimethylphosphate; read-out: Solubility of fluxapyroxad with Cetiol ® B as oil
# From the text: Alternatively, the oil, which comprised the ionic liquid, was saturated with the active ingredient and the soluble fraction of active ingredient was quantified by means of HPLC. In the first line of the tables, in each case the weight ratios of oil to IL are given.
result.type: solubility (mg/mL)

compound="Cn1cc(C(=O)Nc2ccccc2-c2cc(F)c(F)c(F)c2)c(C(F)F)n1 [fluxapyroxad]" result_type=solubility units_symbol=mg/mL result_number=29

###

# test.name: Solubility of UV absorber in oil comprising ionic liquid
# Type: physicochemical
# cond: neat ionic liquid (no oil), 21 °C, organic solvent or mixture, thermodynamic from solid, 100 IL (no oil), IL N-ethyl-N′-methylimidazolium isononanoate, read-out: Solubility of Tinosorb ® S with Cetiol ® B as oil
# Description: For this, increasing amounts of active ingredient were added stepwise to oil (Cetiol® B or Solvesso®), which comprised the ionic liquid, until the maximum solubility was reached. Alternatively, the oil, which comprised the ionic liquid, was saturated with the active ingredient and the soluble fraction of active ingredient was quantified by means of HPLC.
result.type: solubility (µg/mL)

molecule="CCCCC(CC)COc1ccc(-c2nc(-c3ccc(OC)cc3)nc(-c3ccc(OCC(CC)CCCC)cc3O)n2)c(O)c1 (stereo not shown)" result_number=9500

###

# test.name: Solubility of UV absorber in oil comprising ionic liquid
# Format: physicochemical
# cond: oil/ionic liquid mixture, 21 °C, oil or lipid, thermodynamic from solid, Oil/IL 90/10 weight ratio, IL N-ethyl-N′-ethylimidazolium heptanoate, read-out: Solubility of Tinosorb ® S with Cetiol ® B as oil
result.type: solubility (mg/mL)

compound="CCCCC(CC)COc1ccc(-c2nc(-c3ccc(OC)cc3)nc(-c3ccc(OCC(CC)CCCC)cc3O)n2)c(O)c1 (stereo not shown) [Tinosorb ® S]" result_number=13

###

# test.name: Solubility of UV absorber in oil comprising ionic liquid
# Type: physicochemical
# cond: oil/ionic liquid mixture, 21 °C, oil or lipid, thermodynamic from solid, Oil/IL 90/10 weight ratio, IL N-ethyl-N′-methylimidazolium isononanoate, read-out: Solubility of Tinosorb ® S with Cetiol ® B as oil
result.type: solubility (mg/mL)

molecule="CCCCC(CC)COc1ccc(-c2nc(-c3ccc(OC)cc3)nc(-c3ccc(OCC(CC)CCCC)cc3O)n2)c(O)c1 (stereo not shown)" result_type=solubility result_number=13.8

###

# test.name: Solubility of agrochemical active ingredient in oil comprising ionic liquid
# Assay type: physicochemical
# cond: neat Solvesso 200 ND (oil), 21 °C, oil or lipid, thermodynamic from solid, 21° C.; 100 Oil (Solvesso 200 ND, no IL); read-out: Solubility of fluxapyroxad with Solvesso ® 200 ND as oil
result.type: solubility

compound=Cn1cc(C(=O)Nc2ccccc2-c2cc(F)c(F)c(F)c2)c(C(F)F)n1 result_type=solubility result="1500 µg/mL"

###

# test.name: Solubility of agrochemical active ingredient in oil comprising ionic liquid
# Format: physicochemical
# cond: 21 °C, organic solvent or mixture, thermodynamic from solid, 21° C.; 100 IL (no oil); IL N-ethyl-N′-methylimidazolium isononanoate; read-out: Solubility of fluxapyroxad with Solvesso ® 200 ND as oil
result.type: solubility (µg/mL)

compound=Cn1cc(C(=O)Nc2ccccc2-c2cc(F)c(F)c(F)c2)c(C(F)F)n1 result_type=solubility units_symbol=µg/mL result_number=9500

###

# test.name: Solubility of agrochemical active ingredient in oil comprising ionic liquid
# Type: physicochemical
# cond: Cetiol B oil comprising ionic liquid, 21 °C, oil or lipid, thermodynamic from solid, 21° C.; Oil/IL 90/10 weight ratio; IL N-ethyl-N′-ethylimidazolium propionate; read-out: Solubility of fluxapyroxad with Cetiol ® B as oil
result.type: solubility (mg/mL)

compound="Cn1cc(C(=O)Nc2ccccc2-c2cc(F)c(F)c(F)c2)c(C(F)F)n1 [fluxapyroxad]" result_number=24.2

###

# test.name: Solubility of agrochemical active ingredient in oil comprising ionic liquid
# Format: physicochemical
# cond: neat Agnique AMD 12 (N,N-dimethyldodecanamide) oil, 21 °C, oil or lipid, thermodynamic from solid, 21° C.; 100 Oil (Agnique AMD 12, no IL); read-out: Solubility of fluxapyroxad with Agnique AMD 12 ® (N,N-dimethyldodecanamide, lauryl N,N-dimethylamide) as oil
result.type: solubility (mg/mL)

compound=Cn1cc(C(=O)Nc2ccccc2-c2cc(F)c(F)c(F)c2)c(C(F)F)n1 result_type=solubility result_number=21

###

# test.name: Solubility of agrochemical active ingredient in oil comprising ionic liquid
# Assay type: physicochemical
# cond: 21 °C, organic solvent or mixture, thermodynamic from solid, 21° C.; 100 IL (no oil); IL N-ethyl-N′-methylimidazolium isononanoate; read-out: Solubility of fluxapyroxad with Cetiol ® B as oil
result.type: solubility

compound=Cn1cc(C(=O)Nc2ccccc2-c2cc(F)c(F)c(F)c2)c(C(F)F)n1 result="9500 µg/mL"

###

# test.name: Solubility of agrochemical active ingredient in oil comprising ionic liquid
# Assay type: physicochemical
# cond: neat ionic liquid (no oil), 21 °C, organic solvent or mixture, thermodynamic from solid, 21° C.; 100 IL (no oil); IL N-butyl-N′-methylimidazolium dimethylphosphate; read-out: Solubility of fluxapyroxad with Cetiol ® B as oil
result.type: solubility (µg/mL)

compound=Cn1cc(C(=O)Nc2ccccc2-c2cc(F)c(F)c(F)c2)c(C(F)F)n1 units_symbol=µg/mL result_number=5000

###

# test.name: Solubility of agrochemical active ingredient in oil comprising ionic liquid
# Assay type: physicochemical
# cond: Cetiol B oil comprising ionic liquid, 21 °C, oil or lipid, thermodynamic from solid, 21° C.; Oil/IL 60/40 weight ratio; IL N-ethyl-N′-methylimidazolium dibutylphosphate; read-out: Solubility of fluxapyroxad with Cetiol ® B as oil
result.type: solubility (mg/mL)

compound=Cn1cc(C(=O)Nc2ccccc2-c2cc(F)c(F)c(F)c2)c(C(F)F)n1 result_type=solubility result_number=46

###

# test.name: Solubility of agrochemical active ingredient in oil comprising ionic liquid
# Assay type: physicochemical
# cond: Cetiol B oil comprising ionic liquid, 21 °C, oil or lipid, thermodynamic from solid, 21° C.; Oil/IL 60/40 weight ratio; IL N-ethyl-N′-methylimidazolium heptanoate; read-out: Solubility of fluxapyroxad with Cetiol ® B as oil
result.type: solubility

molecule="Cn1cc(C(=O)Nc2ccccc2-c2cc(F)c(F)c(F)c2)c(C(F)F)n1 [fluxapyroxad]" result_type=solubility result="50 mg/mL"

###

# test.name: Solubility of agrochemical active ingredient in oil comprising ionic liquid
# Assay type: physicochemical
# cond: oil or lipid, thermodynamic from solid; 21° C.; Oil/IL 90/10 weight ratio; IL N-butyl-N′-methylimidazolium acetate; read-out: Solubility of fluxapyroxad with Agnique AMD 12 ® (N,N-dimethyldodecanamide, lauryl N,N-dimethylamide) as oil
result.type: solubility (mg/mL)

compound=Cn1cc(C(=O)Nc2ccccc2-c2cc(F)c(F)c(F)c2)c(C(F)F)n1 units_symbol=mg/mL result_number=36

###

# test.name: Solubility of agrochemical active ingredient in oil comprising ionic liquid
# Type: physicochemical
# cond: neat ionic liquid (no oil), 21 °C, organic solvent or mixture, thermodynamic from solid, 21° C.; 100 IL (no oil); IL N-ethyl-N′-methylimidazolium acetate; read-out: Solubility of fluxapyroxad with Cetiol ® B as oil
result.type: solubility

compound=Cn1cc(C(=O)Nc2ccccc2-c2cc(F)c(F)c(F)c2)c(C(F)F)n1 result="47.2 mg/mL"

Value source: patent US9949475B2
